Reference source for all entries: patent US5358959A

measurement target: Ca^++ activated K channel (Homo sapiens, UniProt O15554)
Construct: endogenous in cells; host or cells: human erythrocytes (washed red blood cells from heparinized blood)
protocol summary: Inhibition of the Ca++ activated K channel of human erythrocytes (86Rb influx, K efflux)
Format: cell-based
condition set: human erythrocytes; FIG. 4
Procedure: Preparation of Human Red Blood Cells: Blood is collected in heparinized tubes and centrifuged in a Sorvall centrifuge (RB 5B, Du Pont Instruments,Newtown, Conn.) at 5° C. for 10 minutes at 3000 g. […] An aliquot of cells is then suspended in an approximately equal volume of CWS, and from this original cell suspension hematocrit (Hct) and hemoglobin (optical density at 540 nm) are determined. […]
result type: inhibition of Ca++ activated 86Rb influx by other antimycotics and related compounds

{"compound": "OC(Cn1cncn1)(Cn1cncn1)c1ccc(F)cc1F", "result": "no inhibition"}
{"compound": "Cc1ncc([N+](=O)[O-])n1CC(O)CCl (stereo not shown)", "result": "no inhibition"}
{"compound": "CCS(=O)(=O)CCn1c([N+](=O)[O-])cnc1C", "result": "no inhibition"}
